Biological target: HDAC3 (Homo sapiens)
Construct: purchased Reaction Biology Corporation (assay run by the CRO)
Sequence (O15379 whole entry): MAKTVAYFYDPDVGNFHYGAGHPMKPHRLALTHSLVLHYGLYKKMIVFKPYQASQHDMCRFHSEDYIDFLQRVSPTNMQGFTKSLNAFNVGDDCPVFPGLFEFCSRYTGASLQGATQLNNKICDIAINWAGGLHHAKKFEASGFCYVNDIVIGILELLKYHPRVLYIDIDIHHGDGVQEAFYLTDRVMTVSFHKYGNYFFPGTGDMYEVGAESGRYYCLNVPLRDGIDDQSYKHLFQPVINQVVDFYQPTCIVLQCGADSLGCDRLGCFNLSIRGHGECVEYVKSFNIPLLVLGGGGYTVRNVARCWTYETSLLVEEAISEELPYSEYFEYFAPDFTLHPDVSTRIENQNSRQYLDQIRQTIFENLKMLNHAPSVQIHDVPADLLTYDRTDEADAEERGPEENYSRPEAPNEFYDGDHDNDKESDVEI
Sequence (Q9Y618 395-489 partner limits assumed): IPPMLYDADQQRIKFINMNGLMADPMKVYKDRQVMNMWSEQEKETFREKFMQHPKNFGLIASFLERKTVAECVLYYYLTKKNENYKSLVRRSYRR
Assay: HDAC3 inhibition, full IC50 measurement (Reaction Biology; fluorogenic p53 peptide RHKK(Ac)AMC)
Type: biochemical
Settings: Conc. 1.23E-07 M, t1
Peptide text beside a SMILES is read from it.
Measured Parameter: HDAC3 activity raw data (signal)
Answer using only a numeral; do not append any unit.

Data request: Hello, please tell me recorded HDAC3 activity raw data (signal) for this one: CC(C)C[C@H]1NC(=O)[C@H](Cc2c[nH]c3ccccc23)NC(=O)[C@H](CCCCCS)NC(=O)[C@@H](Cc2ccc(O)cc2)NC(=O)[C@@H](C(C)C)NC(=O)[C@H](Cc2c[nH]cn2)NC(=O)CNC(=O)CNC(=O)[C@@H](CO)NC1=O [des2.2.0, SHA-Trp-dLeu-dSer-Gly-Gly-His-dVal-dTyr] (HELM PEPTIDE1{G.G.H.[dV].[dY].[O=C([C@H](CCCCCS)N[*:1])[*:2]].W.[dL].[dS]}$PEPTIDE1,PEPTIDE1,1:R1-9:R2$$$V2.0)
Data returned: 993017

---

Molecular target: HDAC2 (Homo sapiens, UniProt Q92769)
Construct: purchased Reaction Biology Corporation (assay run by the CRO)
Sequence (Q92769 whole entry): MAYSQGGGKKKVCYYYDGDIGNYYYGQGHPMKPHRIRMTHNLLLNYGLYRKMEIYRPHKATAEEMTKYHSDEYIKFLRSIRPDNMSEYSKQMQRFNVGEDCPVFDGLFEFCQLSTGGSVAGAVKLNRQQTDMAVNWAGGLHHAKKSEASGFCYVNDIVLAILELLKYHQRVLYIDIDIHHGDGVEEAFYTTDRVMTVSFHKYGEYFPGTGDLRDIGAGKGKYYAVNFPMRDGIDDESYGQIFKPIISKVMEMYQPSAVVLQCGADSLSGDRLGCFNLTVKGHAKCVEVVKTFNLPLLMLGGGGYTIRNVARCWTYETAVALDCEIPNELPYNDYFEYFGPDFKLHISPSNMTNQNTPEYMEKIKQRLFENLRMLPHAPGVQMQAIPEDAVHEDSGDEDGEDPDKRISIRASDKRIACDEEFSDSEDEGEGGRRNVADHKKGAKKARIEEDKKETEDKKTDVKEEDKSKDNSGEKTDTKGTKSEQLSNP
Experiment: HDAC2 inhibition, full IC50 measurement (Reaction Biology; fluorogenic p53 peptide RHKK(Ac)AMC)
Type: biochemical
Details: Conc. 1.37E-08 M, t2
Peptide text beside a SMILES is read from it.
We begin with a simple list: items and their reported HDAC2 activity raw data (signal).

Compound: CCCC[C@H]1NC(=O)[C@H](Cc2ccccc2)NC(=O)[C@H](CCCCCS)NC(=O)[C@@H](CCCNC(=N)N)NC(=O)[C@H](CC(=O)O)NC(=O)[C@@H](CO)NC(=O)[C@@H](C)NC(=O)[C@H](CCCCN)NC1=O [des4.3.1, SHA-Phe-dNle-Lys-dAla-dSer-Asp-dArg] (HELM PEPTIDE1{D.[dR].[O=C([C@H](CCCCCS)N[*:1])[*:2]].F.[CCCC[C@@H](N[*:1])C(=O)[*:2]].K.[dA].[dS]}$PEPTIDE1,PEPTIDE1,1:R1-8:R2$$$V2.0)
Measured Parameter: HDAC2 activity raw data (signal)
Result: 1188700
--
Compound: N=C(N)NCCC[C@@H]1NC(=O)[C@H](Cc2c[nH]c3ccccc23)NC(=O)[C@H](CC(=O)O)NC(=O)[C@@H](CO)NC(=O)[C@H](Cc2c[nH]c3ccccc23)NC(=O)[C@H](CCCCCS)NC(=O)[C@H](CCC(N)=O)NC1=O [des4.1.0, SHA-Trp-dSer-Asp-Trp-Arg-Gln] (HELM PEPTIDE1{D.W.R.Q.[O=C([C@H](CCCCCS)N[*:1])[*:2]].W.[dS]}$PEPTIDE1,PEPTIDE1,1:R1-7:R2$$$V2.0)
Measured Parameter: HDAC2 activity raw data (signal)
Result: 1674658

// next entry
Data request: Hello, please tell me recorded HDAC2 activity raw data (signal) for this one: CC(C)[C@@H]1NC(=O)[C@H](CCCNC(=N)N)NC(=O)[C@@H](CC(=O)O)NC(=O)[C@H](CO)NC(=O)[C@@H](CO)NC(=O)[C@@H](CCC(=O)O)NC(=O)[C@H](Cc2ccc(O)cc2)NC(=O)[C@H](CCCCCS)NC1=O [des4.2.0, SHA-Tyr-dGlu-dSer-Ser-dAsp-Arg-Val] (HELM PEPTIDE1{R.V.[O=C([C@H](CCCCCS)N[*:1])[*:2]].Y.[dE].[dS].S.[dD]}$PEPTIDE1,PEPTIDE1,1:R1-8:R2$$$V2.0)
Data returned: 1580365

---

Target: HDAC6 (Homo sapiens)
Construct: purchased Reaction Biology Corporation (assay run by the CRO)
Test: HDAC6 inhibition, full IC50 measurement (Reaction Biology; fluorogenic p53 peptide RHKK(Ac)AMC)
Type: biochemical
Conditions: Conc. 3.70E-07 M, t1
Peptide text beside a SMILES is read from it.
We begin with a simple list: items and their reported HDAC6 activity raw data (signal).
Answer using only a numeral; do not append any unit.

Data request: Hello, please tell me recorded HDAC6 activity raw data (signal) for this one: NCCCC[C@H]1NC(=O)[C@H](CCC(N)=O)NC(=O)[C@H](CCC(=O)O)NC(=O)[C@@H]2CCCN2C(=O)[C@H](CC(N)=O)NC(=O)[C@H](CCCCCS)NC(=O)CNC(=O)[C@H](Cc2c[nH]c3ccccc23)NC1=O [des1.1.1, SHA-Asn-Pro-Glu-Gln-dLys-Trp-Gly] (HELM PEPTIDE1{E.Q.[dK].W.G.[O=C([C@H](CCCCCS)N[*:1])[*:2]].N.P}$PEPTIDE1,PEPTIDE1,1:R1-8:R2$$$V2.0)
Data returned: 121302

Data request: Hello, please tell me recorded HDAC6 activity raw data (signal) for this one: NCCCC[C@@H]1NC(=O)[C@@H]2CCCN2C(=O)[C@H](CC(N)=O)NC(=O)[C@H](CCCCCS)NC(=O)CNC(=O)[C@H](Cc2c[nH]c3ccccc23)NC(=O)[C@@H](CCCCN)NC(=O)[C@H](CCC(N)=O)NC1=O [des1.1.0, SHA-Asn-Pro-Lys-Gln-dLys-Trp-Gly] (HELM PEPTIDE1{G.[O=C([C@H](CCCCCS)N[*:1])[*:2]].N.P.K.Q.[dK].W}$PEPTIDE1,PEPTIDE1,1:R1-8:R2$$$V2.0)
Data returned: 52219

Data request: Hello, please tell me recorded HDAC6 activity raw data (signal) for this one: CCCC[C@H]1NC(=O)[C@H](Cc2ccccc2)NC(=O)[C@H](CCCCCS)NC(=O)[C@@H](CCCNC(=N)N)NC(=O)[C@H](C)NC(=O)[C@@H](CO)NC(=O)[C@@H](C)NC(=O)[C@H](CCCCN)NC1=O [des4.3.1.3, SHA-Phe-dNle-Lys-dAla-dSer-Ala-dArg] (HELM PEPTIDE1{A.[dR].[O=C([C@H](CCCCCS)N[*:1])[*:2]].F.[CCCC[C@@H](N[*:1])C(=O)[*:2]].K.[dA].[dS]}$PEPTIDE1,PEPTIDE1,1:R1-8:R2$$$V2.0)
Data returned: 60632

---

Molecular target: HDAC2 (Homo sapiens, UniProt Q92769)
Construct: purchased Reaction Biology Corporation (assay run by the CRO)
Assay: Initial HDAC2 IC50 estimate (BPS Biosciences HDAC fluorogenic assay kit)
Assay type: biochemical
Conditions: Supplementary Dataset 2; read-out: HDAC2 activity (initial activity)
pIC50: −log10 of the molar value. Peptide text beside a SMILES is read from it.
Measured Parameter: pIC50

Data request: Hello, please tell me recorded pIC50 for this one: CCCC[C@@H]1NC(=O)[C@H](CCCCCS)NC(=O)[C@H](CCc2ccccc2)NC(=O)[C@H](C)NC(=O)[C@@H]2CCCN2C(=O)[C@@H](CC(=O)O)NC(=O)[C@@H](CO)NC(=O)[C@H](Cc2c[nH]c3ccccc23)NC(=O)[C@@H](CO)NC1=O [des3.7.0, SHA-Nlu-dSer-Trp-dSer-dAsp-Pro-Ala-C27] (HELM PEPTIDE1{[O=C([C@H](CCCCCS)N[*:1])[*:2]].[Nle].[dS].W.[dS].[dD].P.A.[O=C([C@H](CCc1ccccc1)N[*:1])[*:2]]}$PEPTIDE1,PEPTIDE1,1:R1-9:R2$$$V2.0)
Data returned: < 6.00

---

We begin with a simple list: items and their reported HDAC6 activity raw data (signal).
Molecular target: HDAC6 (Homo sapiens, UniProt Q9UBN7)
Construct: purchased Reaction Biology Corporation (assay run by the CRO)
Sequence (Q9UBN7 whole entry): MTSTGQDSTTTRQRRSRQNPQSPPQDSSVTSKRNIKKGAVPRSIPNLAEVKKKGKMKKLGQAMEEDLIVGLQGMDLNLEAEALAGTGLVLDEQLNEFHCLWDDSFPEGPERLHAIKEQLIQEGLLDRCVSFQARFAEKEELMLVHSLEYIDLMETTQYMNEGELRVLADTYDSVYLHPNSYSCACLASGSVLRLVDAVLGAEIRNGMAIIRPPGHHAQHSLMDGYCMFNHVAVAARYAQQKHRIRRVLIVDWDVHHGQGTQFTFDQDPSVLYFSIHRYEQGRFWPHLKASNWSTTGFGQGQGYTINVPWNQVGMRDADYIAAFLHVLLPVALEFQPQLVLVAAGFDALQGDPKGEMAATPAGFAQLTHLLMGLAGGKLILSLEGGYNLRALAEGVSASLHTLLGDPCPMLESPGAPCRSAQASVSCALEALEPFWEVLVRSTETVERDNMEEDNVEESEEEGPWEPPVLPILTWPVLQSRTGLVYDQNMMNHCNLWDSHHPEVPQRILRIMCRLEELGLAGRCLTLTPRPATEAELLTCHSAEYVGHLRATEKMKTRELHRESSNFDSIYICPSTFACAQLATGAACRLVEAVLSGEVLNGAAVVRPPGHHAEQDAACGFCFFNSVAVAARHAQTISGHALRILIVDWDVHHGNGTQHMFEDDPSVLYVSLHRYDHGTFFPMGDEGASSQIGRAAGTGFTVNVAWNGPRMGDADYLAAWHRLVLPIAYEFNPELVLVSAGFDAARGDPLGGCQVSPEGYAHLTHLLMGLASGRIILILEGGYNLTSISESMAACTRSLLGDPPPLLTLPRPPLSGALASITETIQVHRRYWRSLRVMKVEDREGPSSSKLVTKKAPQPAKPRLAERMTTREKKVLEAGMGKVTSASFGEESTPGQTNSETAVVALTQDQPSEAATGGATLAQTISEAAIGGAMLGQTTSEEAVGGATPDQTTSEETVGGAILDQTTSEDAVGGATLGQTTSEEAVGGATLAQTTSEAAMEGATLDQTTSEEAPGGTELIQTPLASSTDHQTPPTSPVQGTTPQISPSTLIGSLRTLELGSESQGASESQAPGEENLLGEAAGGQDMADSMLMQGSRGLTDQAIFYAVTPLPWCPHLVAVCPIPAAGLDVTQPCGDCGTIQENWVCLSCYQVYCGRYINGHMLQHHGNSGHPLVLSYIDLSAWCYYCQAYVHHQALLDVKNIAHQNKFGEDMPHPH
Experiment: HDAC6 inhibition, full IC50 measurement (Reaction Biology; fluorogenic p53 peptide RHKK(Ac)AMC)
Format: biochemical
Details: Conc. 1.23E-07 M, t1
Peptide text beside a SMILES is read from it.
Answer using only a numeral; do not append any unit.

Compound: CC(C)C[C@H]1NC(=O)[C@H](Cc2c[nH]c3ccccc23)NC(=O)[C@H](CCCCCS)NC(=O)[C@@H](Cc2ccc(O)cc2)NC(=O)[C@@H](C(C)C)NC(=O)[C@H](Cc2c[nH]cn2)NC(=O)CNC(=O)CNC(=O)[C@@H](CO)NC1=O [des2.2.0, SHA-Trp-dLeu-dSer-Gly-Gly-His-dVal-dTyr] (HELM PEPTIDE1{G.G.H.[dV].[dY].[O=C([C@H](CCCCCS)N[*:1])[*:2]].W.[dL].[dS]}$PEPTIDE1,PEPTIDE1,1:R1-9:R2$$$V2.0)
HDAC6 activity raw data (signal): 144589
//
Compound: NCCCC[C@H]1NC(=O)[C@H](CCC(N)=O)NC(=O)[C@H](CCC(=O)O)NC(=O)[C@@H]2CCCN2C(=O)[C@H](CC(N)=O)NC(=O)[C@H](CCCCCS)NC(=O)CNC(=O)[C@H](Cc2c[nH]c3ccccc23)NC1=O [des1.1.1, SHA-Asn-Pro-Glu-Gln-dLys-Trp-Gly] (HELM PEPTIDE1{E.Q.[dK].W.G.[O=C([C@H](CCCCCS)N[*:1])[*:2]].N.P}$PEPTIDE1,PEPTIDE1,1:R1-8:R2$$$V2.0)
HDAC6 activity raw data (signal): 195275
//
Compound: N=C(N)NCCC[C@@H]1NC(=O)[C@H](Cc2c[nH]c3ccccc23)NC(=O)[C@H](CC(=O)O)NC(=O)[C@@H](CO)NC(=O)[C@H](Cc2c[nH]c3ccccc23)NC(=O)[C@H](CCCCCS)NC(=O)[C@H](CCC(N)=O)NC1=O [des4.1.0, SHA-Trp-dSer-Asp-Trp-Arg-Gln] (HELM PEPTIDE1{D.W.R.Q.[O=C([C@H](CCCCCS)N[*:1])[*:2]].W.[dS]}$PEPTIDE1,PEPTIDE1,1:R1-7:R2$$$V2.0)
HDAC6 activity raw data (signal): 204372
//
Compound: N=C(N)NCCC[C@H]1NC(=O)[C@@H]2CCCN2C(=O)[C@H](CO)NC(=O)[C@@H](Cc2c[nH]cn2)NC(=O)[C@H](CCCCCS)NC(=O)[C@H](CCCCN)NC(=O)[C@H](Cc2ccc(O)cc2)NC(=O)[C@H]2CCCN2C(=O)[C@@H](CCC(N)=O)NC1=O [des3.1.0, SHA-dHis-Ser-Pro-dArg-dGln-dPro-Tyr-Lys] (HELM PEPTIDE1{K.[O=C([C@H](CCCCCS)N[*:1])[*:2]].[dH].S.P.[dR].[dQ].[dP].Y}$PEPTIDE1,PEPTIDE1,1:R1-9:R2$$$V2.0)
HDAC6 activity raw data (signal): 159657

Data request: Hello, please tell me recorded HDAC6 activity raw data (signal) for this one: CCCC[C@H]1NC(=O)[C@H](Cc2ccccc2)NC(=O)[C@H](CCCCCS)NC(=O)[C@@H](CCCNC(=N)N)NC(=O)[C@H](CC(=O)O)NC(=O)[C@@H](CO)NC(=O)[C@@H](C)NC(=O)[C@H](CCCCN)NC1=O [des4.3.1, SHA-Phe-dNle-Lys-dAla-dSer-Asp-dArg] (HELM PEPTIDE1{D.[dR].[O=C([C@H](CCCCCS)N[*:1])[*:2]].F.[CCCC[C@@H](N[*:1])C(=O)[*:2]].K.[dA].[dS]}$PEPTIDE1,PEPTIDE1,1:R1-8:R2$$$V2.0)
Data returned: 97345

Data request: Hello, please tell me recorded HDAC6 activity raw data (signal) for this one: CC(C)[C@@H]1NC(=O)[C@H](CCCNC(=N)N)NC(=O)[C@@H](CC(=O)O)NC(=O)[C@H](CO)NC(=O)[C@@H](CO)NC(=O)[C@@H](CCC(=O)O)NC(=O)[C@H](Cc2ccc(O)cc2)NC(=O)[C@H](CCCCCS)NC1=O [des4.2.0, SHA-Tyr-dGlu-dSer-Ser-dAsp-Arg-Val] (HELM PEPTIDE1{R.V.[O=C([C@H](CCCCCS)N[*:1])[*:2]].Y.[dE].[dS].S.[dD]}$PEPTIDE1,PEPTIDE1,1:R1-8:R2$$$V2.0)
Data returned: 299609

Where these numbers come from: paper PMC8185074
